Cited source for all entries: the supplement of paper PMC11061612

System: AMO-1 (Plasma Cell Myeloma)
Experiment: combination Emax (second highest fraction inhibited in the dose matrix, 72 h); higher = more inhibition; extreme values may be limits of the assay
Measured metric: combination Emax
Lab note: record just the number, no unit beside it.

Incoming: Consider the molecule C[C@@H]1COCCN1c1cc(C2([S@](C)(=N)=O)CC2)nc(-c2ccnc3[nH]ccc23)n1 [AZD6738] + C1CC(C1)(C(=O)[O-])C(=O)[O-].N.N.[Pt+2] [Carboplatin] (first compound max 10 µM, 7x7, partner max 10 µM) and give its recorded combination Emax.
Outgoing: 0.88

Incoming: Consider the molecule CN(CCO)CC[C@H](CSc1ccccc1)Nc1ccc(S(=O)(=O)NC(=O)c2ccc(N3CCC([C@@H](O)c4ccccc4-c4ccc(Cl)cc4)CC3)cc2)cc1S(=O)(=O)C(F)(F)F [AZD4320] + Nc1ccn([C@@H]2O[C@H](CO)[C@@H](O)C2(F)F)c(=O)n1 [Gemcitabine] (first compound max 1 µM, 7x7, partner max 0.3 µM) and give its recorded combination Emax.
Outgoing: 0.953

----------
Test system: Hs-766T (Pancreatic Carcinoma)
Test: Bliss excess, mean over the matrix (fraction); higher = more synergy
Assign Bliss excess to each entry below.
Lab note: record just the number, no unit beside it.

Incoming: Consider the molecule CN(CCO)CC[C@H](CSc1ccccc1)Nc1ccc(S(=O)(=O)NC(=O)c2ccc(N3CCC([C@@H](O)c4ccccc4-c4ccc(Cl)cc4)CC3)cc2)cc1S(=O)(=O)C(F)(F)F [AZD4320] + CC(=O)O[C@H]1C(=O)[C@@]2(C)[C@H]([C@H](OC(=O)c3ccccc3)[C@]3(O)C[C@H](OC(=O)[C@H](O)[C@@H](NC(=O)c4ccccc4)c4ccccc4)C(C)=C1C3(C)C)[C@]1(OC(C)=O)CO[C@@H]1C[C@@H]2O [Paclitaxel] (first compound max 1 µM, 7x7, partner max 3 µM) and give its recorded Bliss excess.
Outgoing: -0.0002

Incoming: Consider the molecule COc1nnc2ccc(N3CCC(c4ccc(OCCN5CCN(C)C(=O)[C@H]5C)cc4)CC3)nn12 [AZD5153] + C[C@@H]1COCCN1C2=NC(=NC(=C2)C3(CC3)[S@](=N)(=O)C)C4=C5C=CNC5=NC=C4 [AZD6738] (first compound max 1 µM, 7x7, partner max 10 µM) and give its recorded Bliss excess.
Outgoing: -0.0137

Incoming: Consider the molecule CN(CCO)CC[C@H](CSc1ccccc1)Nc1ccc(S(=O)(=O)NC(=O)c2ccc(N3CCC([C@@H](O)c4ccccc4-c4ccc(Cl)cc4)CC3)cc2)cc1S(=O)(=O)C(F)(F)F [AZD4320] + C1CN(CCC1(C(=O)N[C@@H](CCO)C2=CC=C(C=C2)Cl)N)C3=NC=NC4=C3C=CN4 [Capivasertib] (first compound max 1 µM, 7x7, partner max 3 µM) and give its recorded Bliss excess.
Outgoing: -0.0492

Incoming: Consider the molecule N#Cc1cnc(Nc2cc(NC[C@H]3CNCCO3)c(C(F)(F)F)cn2)cn1 [SRA737] + O=c1[nH]cc(F)c(=O)[nH]1 [5-Fluorouracil] (first compound max 10 µM, 7x7, partner max 20 µM) and give its recorded Bliss excess.
Outgoing: 0.0415

Incoming: Consider the molecule COc1cc2c(cc1OCCCCCOc1cc3c(cc1OC)C(=O)N1C=C(C)C[C@H]1C=N3)N=C[C@@H]1CC(C)=CN1C2=O [SG3199] + O=C(c1cc(Cc2n[nH]c(=O)c3ccccc23)ccc1F)N1CCN(C(=O)C2CC2)CC1 [Olaparib] (first compound max 0.001 µM, 7x7, partner max 10 µM) and give its recorded Bliss excess.
Outgoing: -0.0433

Incoming: Consider the molecule C[C@@H](Oc1cc(-c2cnn(C3CCNCC3)c2)cnc1N)c1c(Cl)ccc(F)c1Cl [Crizotinib] + CC1=C(C(=CC=C1)Cl)NC(=O)C2=CN=C(S2)NC3=CC(=NC(=N3)C)N4CCN(CC4)CCO [Dasatinib] (first compound max 10 µM, 7x7, partner max 2 µM) and give its recorded Bliss excess.
Outgoing: -0.074

Incoming: Consider the molecule COc1cccc(OCCCN)c1-c1cc(Nc2cnc(C#N)cn2)n[nH]1 [Prexasertib] + C=CCn1c(=O)c2cnc(Nc3ccc(N4CCN(C)CC4)cc3)nc2n1-c1cccc(C(C)(C)O)n1 [AZD1775] (first compound max 1 µM, partner max 1 µM) and give its recorded Bliss excess.
Outgoing: -0.0579

Incoming: Consider the molecule Cc1c2c(nn1C)CSCc1cc(n(C)n1)CSc1cc(c3ccccc3c1)OCCCc1c(C(=O)O)n(C)c3c-2c(Cl)ccc13 [AZD5991] + CC(=O)O[C@H]1C(=O)[C@@]2(C)[C@H]([C@H](OC(=O)c3ccccc3)[C@]3(O)C[C@H](OC(=O)[C@H](O)[C@@H](NC(=O)c4ccccc4)c4ccccc4)C(C)=C1C3(C)C)[C@]1(OC(C)=O)CO[C@@H]1C[C@@H]2O [Paclitaxel] (first compound max 1 µM, 7x7, partner max 3 µM) and give its recorded Bliss excess.
Outgoing: -0.0539

Incoming: Consider the molecule C=CCn1c(=O)c2cnc(Nc3ccc(N4CCN(C)CC4)cc3)nc2n1-c1cccc(C(C)(C)O)n1 [AZD1775] + CCc1c2c(nc3ccc(O)cc13)-c1cc3c(c(=O)n1C2)COC(=O)[C@]3(O)CC [SN-38] (first compound max 1 µM, partner max 0.3 µM) and give its recorded Bliss excess.
Outgoing: 0.0017

Incoming: Consider the molecule COc1cccc(OCCCN)c1-c1cc(Nc2cnc(C#N)cn2)n[nH]1 [Prexasertib] + CCc1c2c(nc3ccc(O)cc13)-c1cc3c(c(=O)n1C2)COC(=O)[C@]3(O)CC [SN-38] (first compound max 1 µM, 7x7, partner max 0.3 µM) and give its recorded Bliss excess.
Outgoing: -0.0063

Incoming: Consider the molecule COc1nnc2ccc(N3CCC(c4ccc(OCCN5CCN(C)C(=O)[C@H]5C)cc4)CC3)nn12 [AZD5153] + Cn1cnc2c(F)c(Nc3ccc(Br)cc3Cl)c(C(=O)NOCCO)cc21 [Selumetinib] (first compound max 1 µM, 7x7, partner max 10 µM) and give its recorded Bliss excess.
Outgoing: -0.0627

Incoming: Consider the molecule N#Cc1cnc(Nc2cc(NC[C@H]3CNCCO3)c(C(F)(F)F)cn2)cn1 [SRA737] + C=CCn1c(=O)c2cnc(Nc3ccc(N4CCN(C)CC4)cc3)nc2n1-c1cccc(C(C)(C)O)n1 [AZD1775] (first compound max 10 µM, partner max 1 µM) and give its recorded Bliss excess.
Outgoing: 0.0161

Incoming: Consider the molecule C=CCn1c(=O)c2cnc(Nc3ccc(N4CCN(C)CC4)cc3)nc2n1-c1cccc(C(C)(C)O)n1 [AZD1775] + O=C(c1cc(Cc2n[nH]c(=O)c3ccccc23)ccc1F)N1CCN(C(=O)C2CC2)CC1 [Olaparib] (first compound max 1 µM, partner max 10 µM) and give its recorded Bliss excess.
Outgoing: 0.0002

----------
System: PWR-1E (Non-Cancerous)
Test: Bliss excess, mean over the matrix (fraction); higher = more synergy
Recorded Bliss excess determines the group label, using low-valued = under -0.04, mid-valued = from -0.04 up to -0.02, high-valued = -0.02 and over

Incoming: Using the reported Bliss excess, which band applies to Cc1c2c(nn1C)CSCc1cc(n(C)n1)CSc1cc(c3ccccc3c1)OCCCc1c(C(=O)O)n(C)c3c-2c(Cl)ccc13 [AZD5991] + Cc1cc2ncnn2cc1Nc1ncc2c(n1)n(C1CCOCC1)c(=O)n2C [AZD7648] (first compound max 1 µM, 7x7, partner max 10 µM) ?
Outgoing: mid-valued

Incoming: Using the reported Bliss excess, which band applies to NC1(C(=O)N[C@@H](CCO)c2ccc(Cl)cc2)CCN(c2ncnc3[nH]ccc23)CC1 [Capivasertib] + C[C@@H]1COCCN1C2=NC(=NC(=C2)C3(CC3)[S@](=N)(=O)C)C4=C5C=CNC5=NC=C4 [AZD6738] (first compound max 10 µM, 7x7, partner max 10 µM) ?
Outgoing: low-valued

Incoming: Using the reported Bliss excess, which band applies to CS(=O)(=O)CCNCc1ccc(-c2ccc3ncnc(Nc4ccc(OCc5cccc(F)c5)c(Cl)c4)c3c2)o1 [Lapatinib] + C[C@@H](Oc1cc(-c2cnn(C3CCNCC3)c2)cnc1N)c1c(Cl)ccc(F)c1Cl [Crizotinib] (first compound max 10 µM, 7x7, partner max 10 µM) ?
Outgoing: high-valued

Incoming: Using the reported Bliss excess, which band applies to CC1(C)CCC(CN2CCN(c3ccc(C(=O)NS(=O)(=O)c4ccc(NCC5CCOCC5)c([N+](=O)[O-])c4)c(Oc4cnc5[nH]ccc5c4)c3)CC2)=C(c2ccc(Cl)cc2)C1 [Venetoclax] + C[C@@H]1COCCN1C2=NC(=NC(=C2)C3(CC3)[S@](=N)(=O)C)C4=C5C=CNC5=NC=C4 [AZD6738] (first compound max 1 µM, 7x7, partner max 10 µM) ?
Outgoing: low-valued

Incoming: Using the reported Bliss excess, which band applies to COc1cccc2c1C(=O)c1c(O)c3c(c(O)c1C2=O)C[C@@](O)(C(=O)CO)C[C@@H]3O[C@H]1C[C@H](N)[C@H](O)[C@H](C)O1 [Doxorubicin] + Cc1cc2ncnn2cc1Nc1ncc2c(n1)n(C1CCOCC1)c(=O)n2C [AZD7648] (first compound max 1 µM, 7x7, partner max 10 µM) ?
Outgoing: high-valued

Incoming: Using the reported Bliss excess, which band applies to Cc1c2c(nn1C)CSCc1cc(n(C)n1)CSc1cc(c3ccccc3c1)OCCCc1c(C(=O)O)n(C)c3c-2c(Cl)ccc13 [AZD5991] + Cn1cnc2c(F)c(Nc3ccc(Br)cc3Cl)c(C(=O)NOCCO)cc21 [Selumetinib] (first compound max 1 µM, 7x7, partner max 3 µM) ?
Outgoing: mid-valued

Incoming: Using the reported Bliss excess, which band applies to CCN(CCO)CCCOc1ccc2c(Nc3cc(CC(=O)Nc4cccc(F)c4)[nH]n3)ncnc2c1 [AZD2811] + O=C(c1cc(Cc2n[nH]c(=O)c3ccccc23)ccc1F)N1CCN(C(=O)C2CC2)CC1 [Olaparib] (first compound max 1 µM, 7x7, partner max 10 µM) ?
Outgoing: high-valued

Incoming: Using the reported Bliss excess, which band applies to CC1(C)CCC(CN2CCN(c3ccc(C(=O)NS(=O)(=O)c4ccc(NCC5CCOCC5)c([N+](=O)[O-])c4)c(Oc4cnc5[nH]ccc5c4)c3)CC2)=C(c2ccc(Cl)cc2)C1 [Venetoclax] + C=CCn1c(=O)c2cnc(Nc3ccc(N4CCN(C)CC4)cc3)nc2n1-c1cccc(C(C)(C)O)n1 [AZD1775] (first compound max 1 µM, partner max 1 µM) ?
Outgoing: mid-valued

Incoming: Using the reported Bliss excess, which band applies to COc1cccc(OCCCN)c1-c1cc(Nc2cnc(C#N)cn2)n[nH]1 [Prexasertib] + Cc1cc2ncnn2cc1Nc1ncc2c(n1)n(C1CCOCC1)c(=O)n2C [AZD7648] (first compound max 1 µM, 7x7, partner max 10 µM) ?
Outgoing: mid-valued

Incoming: Using the reported Bliss excess, which band applies to COc1nnc2ccc(N3CCC(c4ccc(OCCN5CCN(C)C(=O)[C@H]5C)cc4)CC3)nn12 [AZD5153] + C=CCn1c(=O)c2cnc(Nc3ccc(N4CCN(C)CC4)cc3)nc2n1-c1cccc(C(C)(C)O)n1 [AZD1775] (first compound max 1 µM, partner max 1 µM) ?
Outgoing: low-valued

Incoming: Using the reported Bliss excess, which band applies to CCN(CCO)CCCOc1ccc2c(Nc3cc(CC(=O)Nc4cccc(F)c4)[nH]n3)ncnc2c1 [AZD2811] + C[C@@H]1COCCN1C2=NC(=NC(=C2)C3(CC3)[S@](=N)(=O)C)C4=C5C=CNC5=NC=C4 [AZD6738] (first compound max 1 µM, 7x7, partner max 10 µM) ?
Outgoing: low-valued

Incoming: Using the reported Bliss excess, which band applies to NC1(C(=O)N[C@@H](CCO)c2ccc(Cl)cc2)CCN(c2ncnc3[nH]ccc23)CC1 [Capivasertib] + CC(C)n1c(=O)n(C)c2cnc3cc(F)c(-c4ccc(OCCCN5CCCCC5)nc4)cc3c21 [AZD1390] (first compound max 10 µM, 7x7, partner max 0.3 µM) ?
Outgoing: mid-valued

Incoming: Using the reported Bliss excess, which band applies to NC1(C(=O)N[C@@H](CCO)c2ccc(Cl)cc2)CCN(c2ncnc3[nH]ccc23)CC1 [Capivasertib] + CC(=O)c1c(C)c2cnc(Nc3ccc(N4CCNCC4)cn3)nc2n(C2CCCC2)c1=O [Palbociclib] (first compound max 10 µM, 7x7, partner max 10 µM) ?
Outgoing: high-valued

Incoming: Using the reported Bliss excess, which band applies to CC1(C)CCC(CN2CCN(c3ccc(C(=O)NS(=O)(=O)c4ccc(NCC5CCOCC5)c([N+](=O)[O-])c4)c(Oc4cnc5[nH]ccc5c4)c3)CC2)=C(c2ccc(Cl)cc2)C1 [Venetoclax] + CCN(CCO)CCCOc1ccc2c(Nc3cc(CC(=O)Nc4cccc(F)c4)[nH]n3)ncnc2c1 [AZD2811] (first compound max 1 µM, 7x7, partner max 1 µM) ?
Outgoing: mid-valued
